experiment: Peptide assay and peptide impurities by RP-HPLC; format: physicochemical; conditions: sized-vesicle preparation stored at −20° C. ± 5° C., 18 months
Threshold 1 mg/mL: Peptide Assay (RP-HPLC) strictly smaller gives condition met, otherwise condition not met.

// below: answered sequences
sequence_text: FTELTLGEF (Survivin HLA-A1 (modified)) [SurA1.T, survivin peptide antigen [HLA-A1]]
category: condition not met
--
sequence_text: LMLGEFLKL (Survivin HLA-A2 (modified)) [SurA2.M, survivin peptide antigen [HLA-A2]]
category: condition met

// switching to the query sequence
Request: Would you kindly verify if Peptide Assay (RP-HPLC) of LPPAWQPFL (Survivin HLA-B7) [SurB7, survivin peptide antigen [HLA-B7]] is strictly less than 1 mg/mL?
Response: condition not met

# credit: patent US20200353062A1
